Test: amyloid nucleation score (Sup35N fusion, yeast selection) (log enrichment); library NNK2; higher = more nucleation; inactive = no reads after selection;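 note: zero at mode of non-aggregating sequences after 7 days selection at 30°C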
Each record gets a class by amyloid nucleation score: interval 1 = under -0.2, interval 2 = from -0.2 up to 0.7, interval 3 = 0.7 and over

For the record "TYDSYRVIYISY" , report the class its amyloid nucleation score corresponds to. interval 1

Hey, which category is "CIELFPFAMVNRIFATYSYH" in, do you know? interval 1

// return the class label for "PSVTRVLSLVILEAPNA" interval 3

// bin(item) where item = "FSSIDPPNTRSAVSFRMTSP" interval 2

The entry to classify is "LKPSSFVYIITDQFSNHIVM" ; which class holds it? interval 3

# bin lookup: classify "LMAKQFIPGTYTLRGSSFHG" by its amyloid nucleation score interval 1

Textbook exercise: identify the category of the substance given here, "DIPLSSAKAYI" , according to its measured value. interval 2

Just checking, what class would you give "GMLVELHYGPMY" here? interval 2

Textbook exercise: identify the category of the substance given here, "SLSTSFLYDFWVLNSADPRY" , according to its measured value. interval 1

Band assignment needed for "DLGDKFL" please. interval 3

Categorize the following entry: "TAVCKISPQQWAGCHLIHRH" interval 3

Hello team, could you let me know which band the following substance falls into: "LLGAGLSITMWDGPQL" interval 2

Entry "DAFYDS" belongs to which category? interval 1

Form: Item = "VQCVMSESMDELYSLVLRCP" ; Class = ? interval 3

Which amyloid nucleation score category applies to "RLRVVEPGNACWGQMLG" here? interval 2

Assign a category based on measured amyloid nucleation score for "LFVHYFSVGYSHLLCRDCTS" and give only the class name. interval 3

Class? Entry: "RNSLKARYWWGLSGLLKVW" interval 1

Hi, small favor: classify "CCQSSEYCWCAWQTSVTSVG" by its amyloid nucleation score when you get a moment. interval 2

Place this substance in its band: "LVFDACTPEEVGG" interval 3

Entry "RFMVTTAGRVLPLLSMRGWA" belongs to which category? interval 3

Form field 'band' for "PERCYQTG" interval 1

Would you mind sorting "YSPLLTLWKIGRIWIAFMIA" into the appropriate category? interval 2

Hello team, could you let me know which band the following substance falls into: "RLKLMQFLHLAPIVPAILCC" interval 2

The entry to classify is "SSNLKYGKSIFGNSFLQSVF" ; which class holds it? interval 1

Kindly identify the class of "GKVAAGVIGRYTY" . interval 1

Any idea which band "NNVPCEKHRHASMYINAA" is in? interval 2

Class? Entry: "VYVWDELFVNKKANWTDL" interval 3

Kindly identify the class of "LVNSGKLVIPPAVSWWYNWF" . interval 1

Could you place "IVCLAVSLSSDRTE" in its proper category? Many thanks. interval 3

Assign a category based on measured amyloid nucleation score for "YSFGVQC" and give only the class name. interval 2

State the class of the substance shown: "CRVNRGRGNSTTLYMMDFGY" interval 3

In plain terms, what class is "LFKCVSTGHYLLTFRVVVYG" ? interval 1

Band of "DYCSYTAL" ? interval 2

Please let me know in which category the item "CLCCYTIM" belongs. interval 3

Textbook exercise: identify the category of the substance given here, "MGVLEGLSWVSRNKISGVLQ" , according to its measured value. interval 2
